# Test system: SF-539 CNS
# Assay Summary: NCI tumour cell line growth inhibition, 48 h
Endpoint Name: log10 of TGI (log10 of the value in µM)

| Compound | System Name | log10 of TGI |
| --- | --- | --- |
| N#COc1ccc(Oc2ccccc2)cc1 | SF-539 CNS | 1.97 |
| CNCCN[C@@H]1c2cc3c(cc2[C@@H](c2cc(OC)c(O)c(OC)c2)[C@H]2C(=O)OC[C@@H]21)OCO3 | SF-539 CNS | -0.78 |
| Cc1cn(C2C=CC(COP(=O)(OCc3ccc([N+](=O)[O-])o3)N(C)CCCCCl)O2)c(=O)[nH]c1=O (stereo not drawn) | SF-539 CNS | 1.09 |
| O=C1C[C@H](COCc2ccccc2)NC(=O)C[C@H](COCc2ccccc2)NC(=O)C[C@H](COCc2ccccc2)N1 | SF-539 CNS | 1.88 |
| CN(C)CCC(/C=C/c1ccccc1)=N\Nc1ccc(Cl)c(Cl)c1 | SF-539 CNS | 0.62 |
| O/N=C(/C(Cl)=C(Cl)Cl)C(Cl)Cl | SF-539 CNS | 1.65 |
| c1csc(-c2nccc3c2[nH]c2ccccc23)c1 | SF-539 CNS | 1.51 |
| C=C1C(=O)O[C@H]2C1C[C@@H](O)/C(C)=C/CC[C@@]1(C)O[C@H]21 (stereo partly drawn) | SF-539 CNS | 1.73 |
| CO/N=C(/C)c1cccc(Nc2nc3ccc(Cl)cc3c3[nH]c4ccccc4c23)c1 | SF-539 CNS | 1.48 |
| C[N+](C)(C)CC1CCC(C[N+](C)(C)C)C1=O (stereo not drawn) | SF-539 CNS | 1.19 |
| C=CC(COC(=O)C(C)(C)OC(C)=O)c1ccc(OC(=O)C(C)C)c(OC)c1 (stereo not drawn) | SF-539 CNS | 1.44 |
| O=S(=O)(NCCNc1nccc(-c2c(-c3ccc(F)c(O)c3)nc3sccn23)n1)c1ccc(Cl)cc1 | SF-539 CNS | 1.08 |
| O=C1Nc2cc(-c3cccc(O)c3)ccc2/C1=C/c1ccc[nH]1 | SF-539 CNS | 0.40 |
| CCCCCCCCCCCCCCCCCCNCc1ccc(Cl)cc1 | SF-539 CNS | 1.47 |
| CC(=O)Nc1ccc2c3c(cc(O)c2c1)N(C(=O)CCCCC(=O)N1CC(CCl)c2c1cc(O)c1cc(NC(C)=O)ccc21)CC3CCl (stereo not drawn) | SF-539 CNS | 0.13 |
| COC1CC(OC2CCC3(C)C(=CCC4C3C(OC(C)=O)C(OC(=O)CC(C)C)C3(C)C(C(C)=O)CCC43O)C2)OC(C)C1OC1CC(OC)C(OC2CC(OC)C(OC3OC(C)C(O)C(OC)C3O)C(C)O2)C(C)O1 (stereo not drawn) | SF-539 CNS | 1.71 |

---

# Tested on: UACC-257 melanoma
# Assay Summary: NCI tumour cell line growth inhibition, 48 h
// reported TGI per item

| Compound | System Name | TGI |
| --- | --- | --- |
| COc1ccc2c(c1)c1c(n2CCN2CCOCC2)-c2cccc(OC)c2CC1 | UACC-257 melanoma | > 100 µM |
| Cc1cc(C(=O)Nc2n[nH]c3ccccc23)n[nH]1 | UACC-257 melanoma | > 100 µM |
| O=C1N2Cc3c4ccc5c3CN3C(=O)N6Cc7c(ccc(c7CN1C6(c1ccccc1)C23c1ccccc1)OCCOCCOc1cc(Br)c(Br)cc1OCCOCCO4)OCCOCCOc1cc(Br)c(Br)cc1OCCOCCO5 (stereo not drawn) | UACC-257 melanoma | > 100 µM |
